pIC50 for assorted molecules
Study target: recombinant human MetAP2 (Homo sapiens, UniProt P50579)
Construct: Flag
Sequence (P50579 whole entry): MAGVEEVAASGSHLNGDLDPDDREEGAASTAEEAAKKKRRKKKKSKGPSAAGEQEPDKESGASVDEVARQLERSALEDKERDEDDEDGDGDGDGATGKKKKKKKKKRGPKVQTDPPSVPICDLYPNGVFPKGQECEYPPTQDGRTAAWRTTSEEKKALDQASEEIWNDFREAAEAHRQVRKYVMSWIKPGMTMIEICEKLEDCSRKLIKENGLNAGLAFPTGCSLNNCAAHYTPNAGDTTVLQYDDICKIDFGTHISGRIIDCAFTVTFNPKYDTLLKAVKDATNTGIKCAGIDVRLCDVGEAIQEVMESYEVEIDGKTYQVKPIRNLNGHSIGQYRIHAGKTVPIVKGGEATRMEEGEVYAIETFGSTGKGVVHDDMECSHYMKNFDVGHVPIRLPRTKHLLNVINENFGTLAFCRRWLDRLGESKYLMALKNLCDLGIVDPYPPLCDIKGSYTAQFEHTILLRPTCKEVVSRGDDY
Run description: Inhibition of recombinant human MetAP2 activity (Amplex red fluorescence assay)
Test settings: manganese Flag-MetAP2, 0.75 mM Methionine-Alanine-Serine substrate, 30 minutes at 25° C., pH 7.5, 1% DMSO
pIC50: −log10 of the molar value. Structures can show the parent of a compound that is named as a salt.

Molecule	pIC50
COc1c(-c2cocn2)ccc(CS(=O)(=O)c2ccccc2)c1C(=O)O	< 5.70
CCN(CC)C/C=C\c1cc(F)ccc1S(=O)(=O)Cc1ccc(-c2ccoc2)c(OCC#N)c1C(=O)O	> 6.70
COc1c(C2CCOC2)ccc(CS(=O)(=O)C2CC3CCC2CC3)c1C(=O)O (stereo not shown)	< 5.70
O=C(O)c1cc(-c2cnco2)ccc1CS(=O)(=O)c1ccccc1	< 5.70
NCCNc1c(-c2ccoc2)ccc(CS(=O)(=O)c2ccccc2)c1C(=O)O [hydrochloride]	< 5.70
COc1c(C2CC2)ccc(CS(=O)(=O)c2ccccc2)c1C(=O)O	5.70 to 6.70
NCCCc1c(-c2ccoc2)ccc(CS(=O)(=O)c2ccccc2)c1C(=O)O [hydrochloride]	< 5.70
O=C(O)c1c(CS(=O)(=O)c2ccccc2)ccc(-c2ccoc2)c1O	< 5.70
COc1c(-c2ccoc2)ccc(CS(=O)(=O)N2CCC(O)C2)c1C(=O)O (stereo not shown)	5.70 to 6.70
COc1c(-c2ccoc2)ccc(CS(=O)(=O)C2CCCCC2)c1C(=O)O	5.70 to 6.70
NCCOc1c(-c2ccoc2)ccc(CS(=O)(=O)c2ccccc2)c1C(=O)O [hydrochloride]	> 6.70
NCCCOc1c(-c2ccoc2)ccc(CS(=O)(=O)c2ccccc2)c1C(=O)O [hydrochloride]	5.70 to 6.70
COc1ccccc1S(=O)(=O)Cc1ccc(-c2ccoc2)c(OC)c1C(=O)O	5.70 to 6.70
CCc1ccc(CS(=O)(=O)c2ccccc2)c(C(=O)O)c1-c1ccnn1C	< 5.70
COc1ccccc1S(=O)(=O)Cc1ccc(-c2ccoc2)c(OCCN)c1C(=O)O [hydrochloride]	5.70 to 6.70
CNCCOc1c(-c2ccoc2)ccc(CS(=O)(=O)c2ccccc2)c1C(=O)O [hydrochloride]	< 5.70
CCc1ccc(C(C)S(=O)(=O)c2ccccc2)c(C(=O)O)c1OC (stereo not shown)	5.70 to 6.70
Cc1occc1-c1ccc(CS(=O)(=O)c2ccccc2)c(C(=O)O)c1	5.70 to 6.70
CCc1ccc(CS(=O)(=O)c2ccccc2)c(C(=O)O)c1	5.70 to 6.70
COc1c(-c2ccns2)ccc(CS(=O)(=O)c2ccccc2)c1C(=O)O	> 6.70
CCN(CC)C/C=C\c1cc(F)ccc1S(=O)(=O)Cc1ccc(-c2ccoc2)c(OC)c1C(=O)O	> 6.70
COc1c(-c2ccoc2)ccc(CS(=O)(=O)c2cccc(O)c2)c1C(=O)O	5.70 to 6.70
COc1c(-c2cnco2)ccc(CS(=O)(=O)c2ccccc2)c1C(=O)O	5.70 to 6.70
CCc1ccc(CS(=O)(=O)c2ccccc2)c(C(=O)O)c1OCCN [hydrochloride]	> 6.70
CCc1ccc(CS(=O)(=O)c2ccccc2)c(C(=O)O)c1-c1cc[nH]n1	5.70 to 6.70
CCOc1c(-c2ccoc2)ccc(CS(=O)(=O)c2ccccc2)c1C(=O)O	5.70 to 6.70
COc1c(-c2ccoc2)ccc(CS(=O)(=O)c2ccccc2O)c1C(=O)O	> 6.70
COc1c(-c2ccoc2)ccc(CS(=O)(=O)c2ccccc2F)c1C(=O)O	5.70 to 6.70
COc1c(C)ccc(CS(=O)(=O)c2ccccc2)c1C(=O)O	5.70 to 6.70
CCc1ccc(CS(=O)(=O)c2ccc(F)cc2)c(C(=O)O)c1OC	5.70 to 6.70
COCCOc1c(-c2ccoc2)ccc(CS(=O)(=O)c2ccccc2)c1C(=O)O	< 5.70
COc1c(-c2cncs2)ccc(CS(=O)(=O)c2ccccc2)c1C(=O)O	5.70 to 6.70
COc1c(-c2ccoc2)ccc(CS(=O)(=O)c2ccc(F)cc2)c1C(=O)O	> 6.70
NC(=O)COc1c(-c2ccoc2)ccc(CS(=O)(=O)c2ccccc2)c1C(=O)O	5.70 to 6.70
COc1c(-n2ccnc2)ccc(CS(=O)(=O)c2ccccc2)c1C(=O)O	< 5.70
N#CCOc1c(-c2ccoc2)ccc(CS(=O)(=O)c2ccccc2)c1C(=O)O	> 6.70
COc1c(-c2ccoc2)ccc(CS(=O)(=O)N2CCC(F)(F)CC2)c1C(=O)O	> 6.70
CCN(CC)C/C=C\c1ccccc1S(=O)(=O)Cc1ccc(-c2ccoc2)c(OC)c1C(=O)O	> 6.70
CCN(CC)CCCNc1ccccc1S(=O)(=O)Cc1ccc(-c2ccoc2)c(OC)c1C(=O)O	> 6.70
COc1cccc(CS(=O)(=O)c2ccccc2)c1C(=O)O	< 5.70
